- SYSTEM_TESTED: T1, Recombinant HLA-G antigen (human, UniProt P17693 25-308, limits assumed)
- T1 construct: also called recombinant HLA-G protein
- MEASUREMENT_PROTOCOL: BLI (Octet), antibody on anti-human IgG Fc capture biosensor, HLA-G antigen 100 to 1.56 nM
RECORDED_METRIC: koff (s⁻¹)
Give just the number in s⁻¹; leave the unit off.

Observe how each entry below is paired with its result.
BINDER	koff (s⁻¹)
2F1_LS#39 (antibody, human IgG1, kappa, V domains shown) VH: EVQLVESGGGLVQPGGSLRLSCAASGFTFSSYAMSWVRQAPGKGLEWVSRISGSGGYIYYADSVKGRFTISRDNSKNTLYLQMNSLRAEDTAVYYCAKEGTSSYRGWMDVWGQGTLVTVSS VL: DIQMTQSPSSLSASVGDRVTITCRASQSISRYLNWYQQKPGKAPKLLIYATSNLHSGVPSRFSGSGSGTDFTLTISSLQPEDFATYYCQQSYTSPWTFGQGTKVEIKR	0.000106
Positive control antibody (antibody, human IgG1, kappa, V domains shown) VH: QLQLQESGPGLVKPSETLSLTCTVSGGSISSSSTYWSWIRQPPGKGLEWIGGIAYSGSTYYNPSLKSRVTISVDTSKNQFSLKLSSVTAADTAVYYCARGVRRAVPEDYWGQGTLVTVSS VL: EIVLTQSPGTLSLSPGERATLSCQASQAVSSNYLAWYQQKPGQAPRLLIYGASSRATGIPDRFSGSGSGTDFTLTISRLEPEDFAVYYCQQVVHSPYTFGGGTKVEIKR	0.000157
2F1_LS#26 (antibody, human IgG1, kappa, V domains shown) VH: EVQLVESGGGLVQPGGSLRLSCAASGFTFSSYAMSWVRQAPGKGLEWVSRISGSGGYIYYADSVKGRFTISRDNSKNTLYLQMNSLRAEDTAVYYCAKEGTSSYRGWMDVWGQGTLVTVSS VL: DIQMTQSPSSLSASVGDRVTITCRASQSISNYLNWYQQKPGKAPKLLIYATSRLQSGVPSRFSGSGSGTDFTLTISSLQPEDFATYYCQQSYSFPWTFGQGTKVEIKR	2.82e-05

Now examine the next entry.
Input: Identify the reported koff for the following entry. 2F1_LS#24 (antibody, human IgG1, kappa, V domains shown) VH: EVQLVESGGGLVQPGGSLRLSCAASGFTFSSYAMSWVRQAPGKGLEWVSRISGSGGYIYYADSVKGRFTISRDNSKNTLYLQMNSLRAEDTAVYYCAKEGTSSYRGWMDVWGQGTLVTVSS VL: DIQMTQSPSSLSASVGDRVTITCRASQSISNWLNWYQQKPGKAPKLLIYAASRLQSGVPSRFSGSGSGTDFTLTISSLQPEDFATYYCQQSYTSPWTFGQGTKVEIKR
Output: 0.00012
